TEST_SYSTEM: Angiopoietin-1 receptor (Homo sapiens);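 note: reported value is the mean TIE2 inhibition from the GSK PKIS dataset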
TEST_CONTEXT: at 1 µM
REPORTED_METRIC: inhibition

SMILES_ENTRY	RESULT_VALUE
Cc1ccc(C(=O)NC(C)C)cc1-c1ccc(C(=O)NCC2CC2)cc1	-0.28%
NS(=O)(=O)c1ccc(N/N=C2\C(=O)Nc3ccc(C(=O)NCCCn4ccnc4)cc32)cc1	5.99%
CS(=O)(=O)CCNCc1cc(-c2cc3c(Nc4ccc(OCc5cccc(F)c5)c(Cl)c4)ncnc3s2)cs1	10.7%
CN(c1ccc(NC(=O)Nc2c(Cl)cccc2Cl)cc1)c1ccnc(Nc2cccc(CS(C)(=O)=O)c2)n1	72.1%
c1ccc(-c2n[nH]cc2-c2ccnc(-c3ccc(OCCN4CCOCC4)cc3)c2)nc1	7.13%
COc1cc2ncn(-c3cc(OCc4ccccc4C(F)(F)F)c(C(C)=O)s3)c2cc1OC	8.41%
CCS(=O)(=O)c1ccc(OC)c(Nc2ncc(-c3ccccc3Cl)o2)c1	7.52%
CN(C)CCCNc1nccc(-c2c(-c3ccc(F)cc3)nn3cc(C(F)(F)F)ccc23)n1	9.58%
COc1cc(Nc2ncc3c(C)nc(-c4cccc(Oc5ccccc5)c4)n3n2)cc(OC)c1OC	3.09%
NS(=O)(=O)c1ccc(Nc2cc(-c3ccc(O)c(F)c3)n[nH]2)cc1	21.7%

Give me inhibition for each of these compounds, listed below.
1. FC(F)(F)c1cccc(Nc2nccc(-c3cnn4nc(-c5ccccc5)ccc34)n2)c1
2. N#Cc1ccc(Oc2nccc(-c3c(-c4ccc(F)cc4)ncn3C3CCNCC3)n2)cc1
3. CCc1ccc(Oc2nccc(-c3c(-c4ccc(F)cc4)ncn3C3CCNCC3)n2)cc1
4. CN1CCN(CCCNc2nc3ccc(Oc4ccc(NC(=O)Nc5cc(C(F)(F)F)ccc5F)cc4)cc3[nH]2)CC1

a:
["4.87%", "8.62%", "4.41%", "53.8%"]

# return inhibition for each item in the list
1. O=C(Nc1n[nH]c2cc(-c3cc(F)ccc3F)ccc12)C1CC1
2. COc1cc(N2CCN(C(C)C)CC2)ccc1Nc1nc(Nc2ccc(F)cc2C(=O)NC[C@@H](O)CO)c2cc[nH]c2n1
3. NC(=O)c1cc(-c2ccncc2)cc(-c2ccccc2)c1N
4. COc1cccc(/C=N/Nc2ncnc3c2cnn3-c2cccc(OC)c2)c1
5. O=C(NCC1CC1)c1ccc(-c2cccc(C(=O)NC3CC3)c2)cc1

a:
1: 9.26%; 2: 6.08%; 3: 6.28%; 4: 4.37%; 5: 6.47%

----------
TEST_SYSTEM: Mitogen-activated protein kinase 1 (Homo sapiens) (UniProt P28482);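 note: values are mean inhibition, from the GSK PKIS collection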
Sequence (P28482 whole entry): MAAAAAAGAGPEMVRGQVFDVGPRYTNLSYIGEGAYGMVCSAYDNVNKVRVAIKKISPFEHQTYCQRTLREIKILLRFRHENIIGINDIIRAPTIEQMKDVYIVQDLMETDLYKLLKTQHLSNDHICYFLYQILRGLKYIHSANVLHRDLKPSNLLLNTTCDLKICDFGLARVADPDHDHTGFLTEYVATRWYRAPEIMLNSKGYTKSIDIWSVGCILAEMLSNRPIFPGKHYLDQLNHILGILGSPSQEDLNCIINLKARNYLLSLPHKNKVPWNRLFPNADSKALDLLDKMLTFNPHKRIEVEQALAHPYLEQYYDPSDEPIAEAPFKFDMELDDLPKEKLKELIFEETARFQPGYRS
TEST_CONTEXT: at 1 µM
What inhibition was measured for each of the following?
Numbers only, in %.

SMILES_ENTRY	inhibition, %
CN(C)c1ccc2c(c1)/C(=C/Nc1ccc(S(N)(=O)=O)cc1)C(=O)N2	2.53
NC(=O)Cc1ccccc1Oc1nccc(-c2c(-c3ccc(F)cc3)ncn2C2CCNCC2)n1	4.48
Fc1ccc(-c2ncn(CCCN3CCOCC3)c2-c2ccncc2)cc1	1.09
O=C1Nc2ccccc2/C1=C/Nc1ccc(-n2cncn2)cc1	6.4

q: Param item = Fc1ccc(-c2c(-c3ccncc3)nc3n2CCS3)cc1 ; retrieve measured inhibition.
a: 3.3

----------
TEST_SYSTEM: Tyrosine-protein kinase ZAP-70 (Homo sapiens) (UniProt P43403);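 note: values are mean percent inhibition of ZAP-70 kinase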
Sequence (P43403 whole entry): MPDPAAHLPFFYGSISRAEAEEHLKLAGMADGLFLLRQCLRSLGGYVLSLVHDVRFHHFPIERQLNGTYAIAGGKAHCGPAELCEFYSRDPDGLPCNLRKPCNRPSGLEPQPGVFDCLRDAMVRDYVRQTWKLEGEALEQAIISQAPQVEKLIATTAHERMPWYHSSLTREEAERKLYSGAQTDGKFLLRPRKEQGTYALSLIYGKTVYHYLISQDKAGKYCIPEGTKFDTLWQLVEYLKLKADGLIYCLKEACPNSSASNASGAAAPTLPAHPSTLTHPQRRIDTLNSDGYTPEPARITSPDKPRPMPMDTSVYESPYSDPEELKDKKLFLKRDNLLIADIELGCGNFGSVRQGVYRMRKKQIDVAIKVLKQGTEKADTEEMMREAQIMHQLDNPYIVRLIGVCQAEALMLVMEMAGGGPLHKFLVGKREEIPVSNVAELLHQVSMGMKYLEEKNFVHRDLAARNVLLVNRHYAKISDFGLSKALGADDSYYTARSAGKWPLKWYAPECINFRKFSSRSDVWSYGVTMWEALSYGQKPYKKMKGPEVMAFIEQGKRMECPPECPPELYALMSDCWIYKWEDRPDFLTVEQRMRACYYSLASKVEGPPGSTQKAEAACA
TEST_CONTEXT: at 0.1 µM
REPORTED_METRIC: inhibition (%)
One number for each entry, in %.

Study these solved cases before continuing.
SMILES_ENTRY	REPORTED_METRIC	RESULT_VALUE
N#Cc1ccc(Oc2nccc(-c3c(-c4ccc(F)cc4)ncn3C3CCNCC3)n2)cc1	inhibition	-0.57
NS(=O)(=O)c1ccc(N/N=C2\C(=O)Nc3ccc(C(=O)NCCCn4ccnc4)cc32)cc1	inhibition	0.31
CN1CCN(CCCNc2nc3ccc(Oc4ccc(NC(=O)Nc5cc(C(F)(F)F)ccc5F)cc4)cc3[nH]2)CC1	inhibition	-0.98

Give inhibition for all compounds that follow.
1. COc1cccc(-n2cnc3c(N/N=C/c4ccncc4)ncnc32)c1
2. COc1cc2ncn(-c3cc(OCCc4ccccc4)c(C(N)=O)s3)c2cc1OC
3. COc1cc2ncn(-c3cc(OCc4ccccc4C(F)(F)F)c(C(C)=O)s3)c2cc1OC

a:
[-2.42, 0.43, -0.08]

----------
TEST_SYSTEM: Mitogen-activated protein kinase kinase kinase kinase 4 (Homo sapiens) (UniProt O95819)
Sequence (O95819 2-1239 limits assumed): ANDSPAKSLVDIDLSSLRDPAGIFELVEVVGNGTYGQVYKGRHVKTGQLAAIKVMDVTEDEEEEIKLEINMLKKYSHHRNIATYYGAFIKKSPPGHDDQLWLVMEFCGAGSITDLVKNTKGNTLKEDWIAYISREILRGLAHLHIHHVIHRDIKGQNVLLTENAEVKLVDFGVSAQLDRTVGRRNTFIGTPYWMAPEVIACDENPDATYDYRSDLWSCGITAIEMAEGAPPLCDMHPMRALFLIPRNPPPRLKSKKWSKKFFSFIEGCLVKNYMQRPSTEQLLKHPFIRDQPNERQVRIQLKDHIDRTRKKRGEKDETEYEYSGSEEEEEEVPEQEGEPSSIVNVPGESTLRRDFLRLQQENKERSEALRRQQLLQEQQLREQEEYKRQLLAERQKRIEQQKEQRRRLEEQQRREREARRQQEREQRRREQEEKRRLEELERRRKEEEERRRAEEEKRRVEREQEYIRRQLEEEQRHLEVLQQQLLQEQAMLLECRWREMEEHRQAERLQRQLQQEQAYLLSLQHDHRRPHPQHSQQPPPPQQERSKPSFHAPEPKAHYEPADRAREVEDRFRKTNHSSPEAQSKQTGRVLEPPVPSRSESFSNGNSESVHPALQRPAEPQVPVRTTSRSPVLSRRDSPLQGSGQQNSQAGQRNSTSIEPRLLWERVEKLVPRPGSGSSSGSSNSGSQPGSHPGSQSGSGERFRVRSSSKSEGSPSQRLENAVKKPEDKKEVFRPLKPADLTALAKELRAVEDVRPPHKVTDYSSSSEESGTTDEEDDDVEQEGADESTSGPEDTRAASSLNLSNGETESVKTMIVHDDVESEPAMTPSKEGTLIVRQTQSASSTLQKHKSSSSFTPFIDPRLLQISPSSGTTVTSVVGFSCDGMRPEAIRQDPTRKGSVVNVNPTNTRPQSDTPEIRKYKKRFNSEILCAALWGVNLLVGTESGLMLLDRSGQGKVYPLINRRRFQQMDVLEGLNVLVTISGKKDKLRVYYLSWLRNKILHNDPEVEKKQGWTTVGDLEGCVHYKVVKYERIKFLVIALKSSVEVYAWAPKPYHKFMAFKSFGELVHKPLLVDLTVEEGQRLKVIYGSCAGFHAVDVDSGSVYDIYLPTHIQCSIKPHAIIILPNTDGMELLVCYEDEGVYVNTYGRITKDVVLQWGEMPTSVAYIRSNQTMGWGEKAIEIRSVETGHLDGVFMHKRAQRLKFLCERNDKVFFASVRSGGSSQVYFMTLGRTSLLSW
TEST_CONTEXT: at 0.1 µM
Description: GSK_PKIS: MAP4K4 mean inhibition at 0.1 uM [Nanosyn]
Where inhibition equals or exceeds 10%, the correct label is class 1; where it does not, the label is class 0.

COMPOUND	CLASS
O=C(Nc1n[nH]c2cc(-c3ccccc3)ccc12)C1CC1	class 1
c1ccc(-c2n[nH]cc2-c2ccnc(-c3ccc(OCCN4CCOCC4)cc3)c2)nc1	class 1
Fc1ccc(-c2ncn(C3CCNCC3)c2-c2ccnc(Oc3ccc4c(c3)OCO4)n2)cc1	class 0
Cc1ccc(C(=O)NC(C)C)cc1-c1ccc(C(=O)NCC2CC2)cc1	class 0
COc1cc(Nc2ncc3c(C)nc(-c4cccc(C(F)(F)F)c4)n3n2)cc(OC)c1OC	class 1
O=C(NCC1CC1)c1ccc(-c2cccc(C(=O)NC3CC3)c2)cc1	class 0
C[C@@H](Oc1cc(-n2cnc3ccc(OCC4CCN(C)CC4)cc32)sc1C(N)=O)c1ccccc1Cl	class 0
NC(=O)c1ccc(Oc2nccc(-c3c(-c4ccc(F)cc4)ncn3C3CCNCC3)n2)cc1	class 0

Okay, now this compound:
q: Decide: is the reported value of inhibition for CN(c1ccc(NC(=O)Nc2c(Cl)cccc2Cl)cc1)c1ccnc(Nc2cccc(CS(C)(=O)=O)c2)n1 equal to or greater than 10%?
a: class 1

----------
Test system: Proto-oncogene tyrosine-protein kinase receptor Ret (Homo sapiens), P07949 [V804L]
Sequence (P07949 whole entry V804L): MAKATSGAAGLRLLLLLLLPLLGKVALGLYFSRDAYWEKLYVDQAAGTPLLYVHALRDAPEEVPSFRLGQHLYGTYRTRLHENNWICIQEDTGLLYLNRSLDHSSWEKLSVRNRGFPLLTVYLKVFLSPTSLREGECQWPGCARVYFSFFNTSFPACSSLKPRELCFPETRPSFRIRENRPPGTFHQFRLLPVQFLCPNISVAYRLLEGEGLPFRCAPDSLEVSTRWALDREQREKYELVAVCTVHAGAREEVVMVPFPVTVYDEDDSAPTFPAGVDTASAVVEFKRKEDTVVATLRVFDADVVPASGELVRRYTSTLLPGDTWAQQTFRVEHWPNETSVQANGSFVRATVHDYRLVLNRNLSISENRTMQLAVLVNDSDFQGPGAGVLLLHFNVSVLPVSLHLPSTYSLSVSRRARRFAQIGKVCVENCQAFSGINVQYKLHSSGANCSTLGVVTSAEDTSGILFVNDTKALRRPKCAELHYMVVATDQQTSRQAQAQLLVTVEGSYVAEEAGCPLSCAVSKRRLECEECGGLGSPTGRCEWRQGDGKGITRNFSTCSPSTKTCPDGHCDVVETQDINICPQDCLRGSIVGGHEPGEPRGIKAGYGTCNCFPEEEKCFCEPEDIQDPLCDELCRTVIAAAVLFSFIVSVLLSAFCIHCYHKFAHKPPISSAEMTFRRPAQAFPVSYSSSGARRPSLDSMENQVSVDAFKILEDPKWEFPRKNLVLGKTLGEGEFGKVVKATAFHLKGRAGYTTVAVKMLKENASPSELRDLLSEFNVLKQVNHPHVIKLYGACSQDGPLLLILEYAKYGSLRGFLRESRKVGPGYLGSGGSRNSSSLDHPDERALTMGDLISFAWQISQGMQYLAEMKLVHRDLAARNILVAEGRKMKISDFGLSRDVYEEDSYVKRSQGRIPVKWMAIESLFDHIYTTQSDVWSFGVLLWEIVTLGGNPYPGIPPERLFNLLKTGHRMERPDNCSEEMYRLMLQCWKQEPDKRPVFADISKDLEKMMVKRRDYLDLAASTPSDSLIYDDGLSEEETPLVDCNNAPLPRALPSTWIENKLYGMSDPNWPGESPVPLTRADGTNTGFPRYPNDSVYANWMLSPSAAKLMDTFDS
TEST_CONTEXT: at 0.1 µM
Provide the recorded inhibition for the entries that follow.
Give bare numbers, in %.

The following compounds each have a reported value; give each one's inhibition.
1. COc1cc(N2CCN(C(C)C)CC2)ccc1Nc1nc(Nc2ccc(F)cc2C(=O)NC[C@@H](O)CO)c2cc[nH]c2n1
2. NC(=O)Cc1ccccc1Oc1nccc(-c2c(-c3ccc(F)cc3)ncn2C2CCNCC2)n1

a:
1: 5.31; 2: 2.51

Look up inhibition for the entries below, preserving their order.
1. NS(=O)(=O)c1ccc(N/N=C2\C(=O)Nc3ccc(-c4cnco4)cc32)cc1
2. C/C(Nc1ccc(S(N)(=O)=O)cc1)=C1/C(=O)Nc2ccccc21

a:
1. 15
2. 13

----------
TEST_SYSTEM: Serine/threonine-protein kinase Chk1 (Homo sapiens) (UniProt O14757);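 note: mean inhibition of CHEK1, part of the GSK PKIS profiling set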
Sequence (O14757 whole entry): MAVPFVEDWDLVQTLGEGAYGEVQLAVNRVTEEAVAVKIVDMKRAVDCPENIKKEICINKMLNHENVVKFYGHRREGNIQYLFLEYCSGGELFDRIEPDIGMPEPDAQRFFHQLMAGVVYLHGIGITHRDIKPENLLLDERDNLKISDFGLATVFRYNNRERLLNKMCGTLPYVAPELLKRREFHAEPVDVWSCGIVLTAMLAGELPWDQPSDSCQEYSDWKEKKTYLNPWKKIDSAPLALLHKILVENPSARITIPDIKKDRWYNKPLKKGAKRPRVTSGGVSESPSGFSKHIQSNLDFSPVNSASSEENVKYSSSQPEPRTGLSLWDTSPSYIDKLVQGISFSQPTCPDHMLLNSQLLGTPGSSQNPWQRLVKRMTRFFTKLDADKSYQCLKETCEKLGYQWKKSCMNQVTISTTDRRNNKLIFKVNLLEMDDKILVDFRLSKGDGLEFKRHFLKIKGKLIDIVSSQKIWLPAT
TEST_CONTEXT: at 1 µM
For each record, write down the corresponding inhibition.
Answers are plain numbers, in %.

Value sought for every listed molecule: inhibition.
1. NC(=O)c1cc(-c2ccc(F)cc2)cc(-c2ccncc2)c1N
2. COc1cccc(-n2cnc3c(N/N=C/c4ccncc4)ncnc32)c1
3. CN(c1ccc(NC(=O)Nc2c(Cl)cccc2Cl)cc1)c1ccnc(Nc2cccc(CS(C)(=O)=O)c2)n1

a:
1. 0.41
2. 0.31
3. 4.63

For every item in the list below, what is its measured inhibition?
1. COc1ccc2cc(-c3c(-c4ccncc4)nc(-c4ccc([S+](C)[O-])cc4C)n3C)ccc2c1 (stereo unspecified)
2. C[C@@H](Oc1cc(-n2cnc3ccc(OCC4CCN(C)CC4)cc32)sc1C(N)=O)c1ccccc1Cl
3. O=C1Nc2ccccc2/C1=C/Nc1ccc(-n2cncn2)cc1
4. O=C(Nc1n[nH]c2cc(-c3cc(F)ccc3F)ccc12)C1CC1
5. Fc1ccc(-c2ncn(C3CCNCC3)c2-c2ccnc(Oc3ccc4c(c3)OCO4)n2)cc1
6. COc1cc(C)c(N(C)C(=O)CN(C)C)cc1Nc1nc(Nc2cccc(F)c2C(N)=O)c2cc[nH]c2n1

a:
[-9.96, 10.4, 13.5, 1.41, -1.58, -0.94]

For each of the items listed, what is its inhibition?
1. COc1cc2ncn(-c3cc(OCc4ccccc4C(F)(F)F)c(C(C)=O)s3)c2cc1OC
2. CN1CCN(CCCNc2nc3ccc(Oc4ccc(NC(=O)Nc5cc(C(F)(F)F)ccc5F)cc4)cc3[nH]2)CC1
3. c1ccc(Oc2ccc(Nc3ncc(-c4ccccc4)o3)cc2)cc1
4. CCS(=O)(=O)c1ccc(OC)c(Nc2ncc(-c3ccccc3Cl)o2)c1

a:
4.57
0.8
1.6
5.1

Dear colleague, could you please provide inhibition for the molecules listed below?
1. COc1cc2ncn(-c3cc(OCCc4ccccc4)c(C(N)=O)s3)c2cc1OC
2. Fc1ccc(-c2ncn(C3CCNCC3)c2-c2ccnc(Oc3ccc(F)c(F)c3)n2)cc1
3. N#Cc1ccc(Oc2nccc(-c3c(-c4ccc(F)cc4)ncn3C3CCNCC3)n2)cc1

a:
7.39
5.61
-0.27

Could you report inhibition for every entry in the following list?
1. Cc1ccc(C(=O)NC(C)C)cc1-c1ccc(C(=O)NCC2CC2)cc1
2. CCc1nccc2c1nc(-c1nonc1N)n2CC
3. CNC(=O)c1cncc(/C=C/c2c(C)cccc2C)c1
4. NS(=O)(=O)c1ccc(N/N=C2\C(=O)Nc3ccc(-c4cnco4)cc32)cc1
5. NC(=O)Cc1ccccc1Oc1nccc(-c2c(-c3ccc(F)cc3)ncn2C2CCNCC2)n1

a:
-3.38
-3.41
0.19
6.95
5.68
